Some compounds, each annotated with its measured MLD (minimum lethal dose).
Tested on: ddY-strain male mice
Assay: Acute Toxicity Test (minimum lethal dose, oral)
Format: in vivo
Settings: seven days after administration

| COMPOUND | MLD (minimum lethal dose) |
| --- | --- |
| CCCn1c(=O)c2[nH]c(/C=C/c3ccc(OC)c(C)c3C)nc2n(CCC)c1=O [Compound 13] | > 300 mg/kg |
| CCn1c(=O)c2c(nc(/C=C/c3cccc(Br)c3)n2C)n(CC)c1=O [Compound 162] | > 100 mg/kg |
| CCn1c(=O)c2[nH]c(/C=C/c3cc(C)ccc3C)nc2n(CC)c1=O [Compound 109] | > 300 mg/kg |
| CCCn1c(=O)c2c(nc(/C=C/c3cc(OC)c(OC)cc3OC)n2C)n(CCC)c1=O [Compound 24] | > 300 mg/kg |
| CCn1c(=O)c2c(nc(/C=C/c3cc(C(F)(F)F)cc(C(F)(F)F)c3)n2C)n(CC)c1=O [Compound 154] | > 100 mg/kg |
| CCCn1c(=O)c2c(nc(/C=C/c3cccc(Cl)c3)n2C)n(CCC)c1=O [Compound 40] | > 300 mg/kg |
| CCCn1c(=O)c2c(nc(/C=C/c3cccc([N+](=O)[O-])c3)n2C)n(CCC)c1=O [Compound 36] | > 100 mg/kg |

* * *

System: ddY-strain male mice
Test: Acute Toxicity Test (minimum lethal dose, oral)
Assay type: in vivo
Settings: seven days after administration
MEASURED PARAMETER: MLD (minimum lethal dose)

| MOLECULE | ENDPOINT VALUE |
| --- | --- |
| CCn1c(=O)c2c(nc(/C=C/c3ccc(O)c(O)c3)n2C)n(CC)c1=O | > 100 mg/kg |
| CCCOc1ccc(/C=C/c2nc3c(c(=O)n(CC)c(=O)n3CC)n2C)cc1 | > 300 mg/kg |
| CCn1c(=O)c2c(nc(/C=C/c3ccc(O)c(C)c3C)n2C)n(CC)c1=O | > 100 mg/kg |
| CCCn1c(=O)c2nc(/C=C/c3cccc(F)c3)[nH]c2n(CCC)c1=O | > 100 mg/kg |
| CCn1c(=O)c2c(nc(/C=C/c3ccc(OC)c(C)c3C)n2C)n(CC)c1=O | > 300 mg/kg |
| COc1ccc(/C=C/c2nc3c(c(=O)n(C)c(=O)n3C)n2C)c(OC)c1 [Compound 100, (E)-8-(2,4-Dimethoxystyryl)caffeine] | > 300 mg/kg |
| CCCn1c(=O)c2[nH]c(/C=C/c3cccc([N+](=O)[O-])c3)nc2n(CCC)c1=O | > 100 mg/kg |
| CCCn1c(=O)c2[nH]c(/C=C/c3cc(OC)c(OCc4ccccc4)c(OC)c3)nc2n(CCC)c1=O | > 100 mg/kg |
| CCCCOc1ccc(/C=C/c2nc3c([nH]2)c(=O)n(CC)c(=O)n3CC)cc1 | > 100 mg/kg |
